Molecular target: Mitogen-activated protein kinase kinase kinase kinase 1 (Homo sapiens, UniProt Q92918)
Sequence (Q92918 whole entry, the tested form may be a part): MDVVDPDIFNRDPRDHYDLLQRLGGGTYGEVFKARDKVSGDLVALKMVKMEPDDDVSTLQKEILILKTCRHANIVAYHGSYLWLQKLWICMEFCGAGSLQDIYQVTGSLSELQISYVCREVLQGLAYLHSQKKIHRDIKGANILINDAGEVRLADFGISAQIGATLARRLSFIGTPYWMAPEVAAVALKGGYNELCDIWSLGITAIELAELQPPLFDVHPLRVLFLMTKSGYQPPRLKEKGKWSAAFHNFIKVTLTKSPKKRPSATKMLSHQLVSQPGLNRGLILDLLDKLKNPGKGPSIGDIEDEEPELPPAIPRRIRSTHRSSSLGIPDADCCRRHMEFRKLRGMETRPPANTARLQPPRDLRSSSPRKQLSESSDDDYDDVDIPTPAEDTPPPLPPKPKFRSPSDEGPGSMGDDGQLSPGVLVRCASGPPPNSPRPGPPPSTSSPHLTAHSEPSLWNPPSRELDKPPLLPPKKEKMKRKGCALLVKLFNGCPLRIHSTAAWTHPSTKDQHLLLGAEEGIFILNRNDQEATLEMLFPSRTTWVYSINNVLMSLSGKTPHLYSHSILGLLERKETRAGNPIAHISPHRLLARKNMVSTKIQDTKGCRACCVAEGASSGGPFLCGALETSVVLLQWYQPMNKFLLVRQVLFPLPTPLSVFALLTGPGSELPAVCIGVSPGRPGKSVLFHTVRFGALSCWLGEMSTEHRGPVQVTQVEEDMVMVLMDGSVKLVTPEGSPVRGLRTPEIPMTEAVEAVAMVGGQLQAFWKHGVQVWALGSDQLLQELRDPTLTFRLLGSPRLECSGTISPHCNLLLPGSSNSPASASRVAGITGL
Test: Inhibition of N-terminal GST-tagged human HPK1 (1 to 346 residues) after 30 mins in presence of ATP by indirect ELISA
pIC50: −log10 of the molar value.
endpointLabel: pIC50

Please list pIC50 recorded for the compound CN1CCN(c2ccc3[nH]c(-c4c(N)c5ccsc5[nH]c4=O)nc3c2)CC1
> 7.30

// fetch pIC50 given entry CN1CCN(c2ccc3nc(-c4c(N)c5sccc5[nH]c4=O)[nH]c3c2)CC1
> 7.30

----------
The following compounds have recorded IC50 on Programmed cell death protein 1 (Homo sapiens).
Sequence (Q15116 whole entry): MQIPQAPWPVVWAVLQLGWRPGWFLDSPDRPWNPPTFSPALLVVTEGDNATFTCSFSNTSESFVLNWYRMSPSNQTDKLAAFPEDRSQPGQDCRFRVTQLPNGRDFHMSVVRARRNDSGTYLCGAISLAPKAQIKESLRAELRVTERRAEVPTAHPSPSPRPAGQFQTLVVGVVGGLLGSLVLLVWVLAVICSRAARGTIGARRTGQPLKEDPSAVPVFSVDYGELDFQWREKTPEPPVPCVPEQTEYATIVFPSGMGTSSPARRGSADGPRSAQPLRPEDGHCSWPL

Please report IC50 for the following compound: C[C@H](O)[C@H](NC(=O)N[C@@H](CC(N)=O)c1nnc([C@@H](N)CO)s1)C(=O)O
< 50 nM

Supply measured IC50 of COc1cc(OCc2cccc(-c3ccccc3)c2C)cc(OC)c1CNCC1CC(=O)N1 (configuration not stated) in your reply.
< 50 nM

----------
Assay: Half life in rat
Format: ADME, organism-based
Settings: in vivo
endpointLabel: half-life

Give the reported value of half-life for this record: N=C(NO)NCC[C@H](N)C(=O)O
15 to 30 min

----------
Target: eIF-2-alpha kinase GCN2 (Homo sapiens, UniProt Q9P2K8)
Sequence (Q9P2K8 whole entry): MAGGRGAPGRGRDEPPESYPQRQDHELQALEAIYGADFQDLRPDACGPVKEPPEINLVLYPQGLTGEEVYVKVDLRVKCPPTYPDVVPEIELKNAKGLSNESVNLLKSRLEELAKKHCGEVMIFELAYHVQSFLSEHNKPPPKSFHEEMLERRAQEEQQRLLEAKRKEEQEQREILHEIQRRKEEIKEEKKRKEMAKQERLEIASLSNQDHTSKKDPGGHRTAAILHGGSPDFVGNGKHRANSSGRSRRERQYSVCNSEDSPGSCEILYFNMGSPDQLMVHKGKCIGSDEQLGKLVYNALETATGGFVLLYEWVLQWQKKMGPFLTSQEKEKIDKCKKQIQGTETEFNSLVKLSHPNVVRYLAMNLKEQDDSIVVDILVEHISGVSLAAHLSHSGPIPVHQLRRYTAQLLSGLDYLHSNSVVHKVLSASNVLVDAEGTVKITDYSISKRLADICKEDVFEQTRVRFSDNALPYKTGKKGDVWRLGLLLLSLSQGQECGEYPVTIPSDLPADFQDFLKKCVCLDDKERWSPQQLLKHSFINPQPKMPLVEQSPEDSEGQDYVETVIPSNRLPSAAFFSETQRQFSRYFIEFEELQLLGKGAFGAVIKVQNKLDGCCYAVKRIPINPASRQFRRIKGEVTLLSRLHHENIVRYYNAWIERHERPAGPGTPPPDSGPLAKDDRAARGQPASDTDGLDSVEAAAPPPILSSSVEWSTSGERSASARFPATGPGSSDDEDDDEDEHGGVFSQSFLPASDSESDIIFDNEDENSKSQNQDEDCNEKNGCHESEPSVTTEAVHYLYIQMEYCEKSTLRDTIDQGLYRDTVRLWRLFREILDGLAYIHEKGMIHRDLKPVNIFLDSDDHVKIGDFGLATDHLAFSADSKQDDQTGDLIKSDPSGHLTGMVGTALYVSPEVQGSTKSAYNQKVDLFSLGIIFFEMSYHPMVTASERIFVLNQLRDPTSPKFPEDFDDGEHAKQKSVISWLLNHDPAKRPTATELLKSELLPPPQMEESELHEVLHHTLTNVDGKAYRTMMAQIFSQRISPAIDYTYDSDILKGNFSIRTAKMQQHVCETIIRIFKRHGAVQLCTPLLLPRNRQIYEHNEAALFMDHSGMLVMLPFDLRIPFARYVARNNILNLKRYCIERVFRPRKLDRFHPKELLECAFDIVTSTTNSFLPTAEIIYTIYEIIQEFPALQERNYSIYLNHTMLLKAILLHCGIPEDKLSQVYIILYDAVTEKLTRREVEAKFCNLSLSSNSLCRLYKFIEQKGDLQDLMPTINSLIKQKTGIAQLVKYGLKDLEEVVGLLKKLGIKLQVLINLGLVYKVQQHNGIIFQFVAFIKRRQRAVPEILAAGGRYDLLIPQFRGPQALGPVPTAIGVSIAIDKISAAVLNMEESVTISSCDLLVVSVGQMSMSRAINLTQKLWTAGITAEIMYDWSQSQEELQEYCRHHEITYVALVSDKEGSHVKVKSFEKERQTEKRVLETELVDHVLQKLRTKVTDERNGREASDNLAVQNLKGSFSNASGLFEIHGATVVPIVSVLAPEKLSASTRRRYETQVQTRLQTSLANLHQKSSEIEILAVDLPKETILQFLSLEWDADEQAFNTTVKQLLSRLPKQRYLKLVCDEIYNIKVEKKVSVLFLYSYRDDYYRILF
pIC50: −log10 of the molar value.
endpointLabel: pIC50

Please supply the value of reported pIC50 for the item CC(C)C1(O)C(=O)Nc2cc(Nc3nc4c(-c5cnn(C)c5)nccn4n3)ccc21 (stereo unspecified)
5.52 to 6.52

----------
pIC50: −log10 of the molar value.
endpointLabel: pIC50

Give pIC50 for CC(C)C1(O)C(=O)Nc2cc(Nc3nc4c(-c5cnn(C)c5)nccn4n3)ccc21 (stereo unspecified) tested on Tyrosine-protein kinase SYK (Homo sapiens, UniProt P43405).
6.52 to 7.00

----------
Assay: Inhibition of arginase (unknown origin)
Set-up: species or system Homo sapiens
endpointLabel: IC50 (nM)
// units = nM; emit number, no label

// Input: C[C@H](N)C(=O)N1C[C@H](CCCB(O)O)[C@](N)(C(=O)O)C1 . Output its IC50 only.
98

# credit: ChEMBL document CHEMBL4184111
